test system: Purified diglycosidase; test: Influence of free glucose on diglycosidase activity; format: biochemical, Penicillium multicolor IAM7153; conditions: Glucose concentration 4 %; isolated aglycon amount at glucose 0% and 0.5 hour = 100%
measured parameter: Isolation of isoflavone aglycons by diglycosidase in presence of glucose (%)

O=c1c(-c2ccc(O)cc2)coc2cc(O[C@@H]3O[C@H](CO)[C@@H](O)[C@H](O)[C@H]3O)ccc12 :: 126
COc1cc2c(=O)c(-c3ccc(O)cc3)coc2cc1O[C@@H]1O[C@H](COC(C)=O)[C@@H](O)[C@H](O)[C@H]1O :: 100.9
COc1cc2c(=O)c(-c3ccc(O)cc3)coc2cc1O[C@@H]1O[C@H](COC(=O)CC(=O)O)[C@@H](O)[C@H](O)[C@H]1O :: 127.6
O=C(O)CC(=O)OC[C@H]1O[C@@H](Oc2cc(O)c3c(=O)c(-c4ccc(O)cc4)coc3c2)[C@H](O)[C@@H](O)[C@@H]1O :: 164.7
COc1cc2c(=O)c(-c3ccc(O)cc3)coc2cc1O[C@@H]1O[C@H](CO)[C@@H](O)[C@H](O)[C@H]1O :: 99.7
O=C(O)CC(=O)OC[C@H]1O[C@@H](Oc2ccc3c(=O)c(-c4ccc(O)cc4)coc3c2)[C@H](O)[C@@H](O)[C@@H]1O :: 132.1
CC(=O)OC[C@H]1O[C@@H](Oc2ccc3c(=O)c(-c4ccc(O)cc4)coc3c2)[C@H](O)[C@@H](O)[C@@H]1O :: 112.2
CC(=O)OC[C@H]1O[C@@H](Oc2cc(O)c3c(=O)c(-c4ccc(O)cc4)coc3c2)[C@H](O)[C@@H](O)[C@@H]1O :: 104.1
